tested on: Botrytis cinerea; test: Antifungal activity against Botryotinia fuckeliana UCA 992 assessed as inhibition of radial growth at 50 ug/mL after 6 days relative to control; type: functional; conditions: UCA 992, 144 h
Categorize each record by its inhibition at 50 µg/mL using low band: < 30%; middle band: ≥ 30% and < 60%; high band: ≥ 60%

Use these answered entries as a reference point.
                                        smi       test_system  assigned_category
0  CC1(C)C[C@H](OCCN2C(=O)c3ccccc3C2=O)[C@]23CC[C@@H](O)[C@@](C)(CC[C@@H]12)C3  Botrytis cinerea        middle band
1  CC1(C)C[C@H](OCCS)[C@]23CC[C@@H](O)[C@@](C)(CC[C@@H]12)C3  Botrytis cinerea           low band
2  CO[C@H]1CC(C)(C)[C@@H]2CC[C@@]3(C)C[C@]12CC[C@@H]3O  Botrytis cinerea           low band
3  CC1(C)C[C@H](OCCSC(=N)N)[C@]23CC[C@@H](O)[C@@](C)(CC[C@@H]12)C3  Botrytis cinerea          high band
4  CC1(C)C[C@H](OCCBr)[C@]23CC[C@@H](O)[C@@](C)(CC[C@@H]12)C3  Botrytis cinerea          high band

Exercise: read the entry C=CCO[C@H]1CC(C)(C)[C@@H]2CC[C@@]3(C)C[C@]12CC[C@H]3O and state which class it falls under. high band

Exercise: read the entry CC1(C)CC(=O)[C@]23CCC(=O)[C@@](C)(CC[C@@H]12)C3 and state which class it falls under. low band

Exercise: read the entry CC1(C)C[C@H](OCCCl)[C@]23CC[C@@H](O)[C@@](C)(CC[C@@H]12)C3 and state which class it falls under. middle band
